Ref: the RNAGym collection of RNA variant scans (doi:10.7554/elife.80360)

self-cleavage for assorted variants
B1: CPEB3 Ribozyme (parent)
chain: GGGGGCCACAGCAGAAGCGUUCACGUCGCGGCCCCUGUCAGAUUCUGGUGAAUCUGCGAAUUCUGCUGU

variants of: B1; test: self-cleavage, relative activity (ratio to wild type); higher = more cleavage; co-transcriptional
Enter a number only.

stdin: Can you share its self-cleavage? I mean this variant: GGGGGCCACAGCAGAAACGUUCACGUCGCUGCCCCUGUCAGAUUCUGGUGAAUCUGCGAAUUCUGCUGU [G17A G30U]
stdout: 0.176

stdin: Can you share its self-cleavage? I mean this variant: GGGGGCCACAGCAGAAGUGUUCACGUCGCUGCCCCUGUCAGAUUCUGGUGAAUCUGCGAAUUCUGCUGU [C18U G30U]
stdout: 0.192

stdin: Can you share its self-cleavage? I mean this variant: GGGGGCCACAGCAGAAGCGUUCACGUCGCGGCCCCUGUCGGAUUCUGGUGAAUCUGCGAUUUCUGCUGU [A40G A60U]
stdout: 0.486

stdin: Can you share its self-cleavage? I mean this variant: GGGGGCCACAGCAGAAGCAUUCUCGUCGCGGCCCCUGUCAGAUUCUGGUGAAUCUGCGAAUUCUGCUGU [G19A A23U]
stdout: 0.154

stdin: Can you share its self-cleavage? I mean this variant: GGGGGCCACAGCAGAAGCGUUCACGUCGCGGCCCCUGUCAGAUUCUGGUGAAUCUACGAAUUCUGUUGU [G56A C66U]
stdout: 0.929

stdin: Can you share its self-cleavage? I mean this variant: GGGGGCCACAGCAGAAGCGUUCACGUCGCGGCCCCUGUCAGAUUCUGGUGAAUCUGUGGAUUCUGCUGU [C57U A59G]
stdout: 0.354

stdin: Can you share its self-cleavage? I mean this variant: UGGGGCCACAGCAGACGCGUUCACGUCGCGGCCCCUGUCAGAUUCUGGUGAAUCUGCGAAUUCUGCUGU [G1U A16C]
stdout: 0.022

stdin: Can you share its self-cleavage? I mean this variant: GGGGGCCACAGCAGAAGCGUUCACGUCGCGGCCCCUGUCAGAUUCUGGUGAAUCUGAAAAUUCUGCUGU [C57A G58A]
stdout: 0.313

stdin: Can you share its self-cleavage? I mean this variant: GGGGGCCACAGCAGAAGCGUUCACGUCGCGGCCCCUGUCAGAUUCUGGCGAAUCUGCGAAUUCCGCUGU [U49C U64C]
stdout: 0.907

stdin: Can you share its self-cleavage? I mean this variant: GGGAGCCACAGCAGAAGCGUUCACGUCGCGGCCCCUGUAAGAUUCUGGUGAAUCUGCGAAUUCUGCUGU [G4A C39A]
stdout: 0.521

stdin: Can you share its self-cleavage? I mean this variant: GGGGGGCACAGCAGAAGCGUUCACGUCGCGGCCCCUGUCAGAUUCUGGUGAAUCUGCGAAUUCUACUGU [C6G G65A]
stdout: 0.109

stdin: Can you share its self-cleavage? I mean this variant: GGGGGCCACAGCAGAAGCGUACACGUCGCGGCCCCUGUCAGAUUCUGGUGAUUCUGCGAAUUCUGCUGU [U21A A52U]
stdout: 0.935

stdin: Can you share its self-cleavage? I mean this variant: GGGGGCCACAGGAGAAGCGUUCACGUCGCGGCCCCUGUCAGAUUCUGUUGAAUCUGCGAAUUCUGCUGU [C12G G48U]
stdout: 0.925

stdin: Can you share its self-cleavage? I mean this variant: GGGGGCCACAGCAGAAGCGUUCACGUCGCGGCCCCUGUCAGAUUCUGGUGAAUAUGCGAAAUCUGCUGU [C54A U61A]
stdout: 0.512
